- measurement description: Log P by HPLC on reversed phase columns (EEC directive 79/831 Annex V.A8; methods [a], [b], [c])
- Assay type: physicochemical
Collected LogP values appear next to each entry.

CC(=O)c1cncn1CC(C)(O)c1ccc(Oc2ccc(C(F)(F)F)nc2)nc1C(F)(F)F (centres unmarked) [I-291] :: 2.27^[a]
N#Cc1cncn1CC(O)(C#CC1CC1)C1(F)CC1 (centres unmarked) [I-693] :: 1.74^[a]
N#Cc1cncn1CC(O)(c1cc(Cl)cc(Cl)c1F)C1(F)CC1 (centres unmarked) [I-572] :: 2.66^[a]
COc1ccc(C(O)(CC2CC2)Cn2cncc2C#N)c(Cl)n1 (centres unmarked) [I-548] :: 2.10^[a]

Next item in the queue.
[ask] Give the reported value of LogP for this record: N#Cc1cncn1CC(O)(c1ccc(C2CC2)cc1Cl)C1(Cl)CC1 (centres unmarked) [I-332]
[reply] 2.88^[a]

---

- measurement description: Log P by HPLC on reversed phase columns (EEC directive 79/831 Annex V.A8; methods [a], [b], [c])
- Format: physicochemical
- protocol conditions: reversed phase HPLC column; method [a]: LC-UV, acidic range, 0.1% formic acid in water and acetonitrile as eluent (linear gradient from 10% to 95% acetonitrile)
The following ranges of chromatographic logP define the classes used here: category 1 (below 2), category 2 (2 to below 3), category 3 (3 or more)

Check out these entries, answers already filled in.
O=C(Cn1cncc1F)c1cnc(Oc2ccc(Cl)cc2)cc1C(F)(F)F :: category 2
N#Cc1cncn1CC(=O)c1ccc(Oc2ccc(Br)cc2)cc1Br :: category 3
O=C(Cn1cncc1F)c1ccc(Oc2ccc(Br)nc2)nc1C(F)(F)F :: category 2

[ask] Sort N#Cc1cncn1CC(=O)c1cnc(Oc2ccc(Br)nc2)cc1C(F)(F)F into one of the categories.
[reply] category 2

[ask] Sort N#Cc1cncn1CC(=O)c1ccc(Oc2ccc(Cl)cc2)cc1C(F)(F)F into one of the categories.
[reply] category 3

[ask] Sort O=C(Cn1cncc1Cl)c1ccc(Oc2ccc(Cl)cc2)cc1C(F)(F)F into one of the categories.
[reply] category 3

---

- measurement description: Log P by HPLC on reversed phase columns (EEC directive 79/831 Annex V.A8; methods [a], [b], [c])
- Type: physicochemical
Collected LogP values appear next to each entry.

N#Cc1cncn1CC(O)(C#CC1CCCC1)C1(F)CC1 (centres unmarked) [I-453] :: 2.30^[a]

[ask] Give the reported value of LogP for this record: OC(Cn1cncc1Br)c1ccc(Oc2ccc(Cl)cc2)cc1Cl (centres unmarked) [I-14]
[reply] 2.60^[a]

[ask] Give the reported value of LogP for this record: CCC(C)C(O)(Cn1cncc1C#N)c1ccc(Cl)cc1Cl (centres unmarked) [I-314]
[reply] 3.29^[a]

[ask] Give the reported value of LogP for this record: OC(Cn1cncc1Br)c1ccc(Oc2ccc(Cl)cc2)cc1Br (centres unmarked) [I-24]
[reply] 2.68^[a]

[ask] Give the reported value of LogP for this record: N#Cc1cncn1CC(O)(c1ccc(F)cc1)C1(Cl)CC1 (centres unmarked) [I-248]
[reply] 2.21^[a]

[ask] Give the reported value of LogP for this record: N#Cc1cncn1CC(O)(CC1CC1)c1cc(Cl)cc(Cl)c1 (centres unmarked) [I-503]
[reply] 2.28^[a]

Origin of the recorded values: patent US20200031778A1
